List of IC50 values.
- Test system: PC-3
- measurement-protocol: Cytotoxicity against human p53 deficient PC3 cells after 72 hrs by SRB assay
- Type: functional, cell-based
- particulars: PC-3, 72 h
The reply should contain only the number, in µM.

> print(dat)
                         chemical.structure  assay.result
1  Nc1sc(-c2ccc(Cl)cc2)c(-c2ccc(Cl)cc2)c1C(=O)N1CCCC1          6.22
2  Nc1sc(-c2ccc(Br)cc2)c(-c2ccc(Cl)cc2)c1C(=O)NC1CCCCC1          28.4
3  Nc1sc(-c2ccc(Cl)cc2)c(-c2ccc(Cl)cc2)c1C(=S)NC1CCCC1            29

Data request: Bench note: what IC50 did `CC(C)(C)NC(=S)c1c(N)sc(-c2ccc(Cl)cc2)c1-c1ccc(Cl)cc1` show?
Data returned: 34

Data request: Further, for `Nc1sc(-c2ccc(Cl)cc2)c(-c2ccc(Cl)cc2)c1C(=O)NC1CC1` ?
Data returned: 3.68

Data request: Further, for `Nc1sc(-c2ccc(F)cc2)c(-c2ccc(Cl)cc2)c1C(=O)NC1CC1` ?
Data returned: 27.9

Data request: Further, for `Nc1sc(-c2ccccc2)c(-c2ccc(Cl)cc2)c1C(=O)NCc1ccccc1` ?
Data returned: 22.8

Data request: Further, for `Nc1sc(-c2ccccc2)c(-c2ccc(Cl)cc2)c1C(=O)N1CCOCC1` ?
Data returned: 29.3

====

- assay-target: Tumour suppressor p53/oncoprotein Mdm2 (Homo sapiens, UniProt Q00987)
- Sequence (P04637 whole entry): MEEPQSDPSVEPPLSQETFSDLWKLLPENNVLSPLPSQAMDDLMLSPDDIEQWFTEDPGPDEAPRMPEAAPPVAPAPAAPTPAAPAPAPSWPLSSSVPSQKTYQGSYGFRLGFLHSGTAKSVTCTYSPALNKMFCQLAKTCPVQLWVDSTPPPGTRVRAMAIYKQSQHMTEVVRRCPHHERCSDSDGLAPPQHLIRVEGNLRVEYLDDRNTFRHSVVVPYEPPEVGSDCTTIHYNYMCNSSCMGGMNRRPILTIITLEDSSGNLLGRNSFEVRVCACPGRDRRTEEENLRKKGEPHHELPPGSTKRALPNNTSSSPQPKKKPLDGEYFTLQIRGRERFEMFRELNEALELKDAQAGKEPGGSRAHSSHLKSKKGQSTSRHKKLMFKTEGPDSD
- Sequence (Q00987 whole entry): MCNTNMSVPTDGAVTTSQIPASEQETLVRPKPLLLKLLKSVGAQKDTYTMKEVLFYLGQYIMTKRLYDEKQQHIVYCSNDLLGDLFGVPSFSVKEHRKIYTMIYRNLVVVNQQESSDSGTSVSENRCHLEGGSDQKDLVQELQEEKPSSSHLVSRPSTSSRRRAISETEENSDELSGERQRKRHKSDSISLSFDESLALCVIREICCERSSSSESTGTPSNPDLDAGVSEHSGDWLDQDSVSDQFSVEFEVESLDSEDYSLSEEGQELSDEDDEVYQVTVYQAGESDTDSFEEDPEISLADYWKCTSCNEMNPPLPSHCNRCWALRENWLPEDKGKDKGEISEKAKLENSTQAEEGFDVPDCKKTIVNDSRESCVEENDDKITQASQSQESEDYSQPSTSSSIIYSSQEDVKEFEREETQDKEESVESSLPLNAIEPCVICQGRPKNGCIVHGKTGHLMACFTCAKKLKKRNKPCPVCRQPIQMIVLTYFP
- measurement-protocol: Inhibition of p53/MDM2 (1 to 118) (unknown origin) interaction after 1 hr by fluorescence polarization assay
pKi: −log10 of the molar value.
Quick rule for you: pKi at 6 or higher means Fulfilled, lower means Not fulfilled.

Data request: Textbook exercise: given the entry `Nc1sc(-c2ccc(Cl)cc2)c(-c2ccc(Cl)cc2)c1C(=S)NC1CCCC1` , state whether its pKi is greater than or equal to 6.
Data returned: Fulfilled

====

- Test system: PC-3
- measurement-protocol: Cytotoxicity against human p53 deficient PC3 cells after 72 hrs by SRB assay
- Type: functional, cell-based
- particulars: PC-3, 72 h
Could you please classify the records by IC50 using these ranges: low (below 20 µM), middle (20 µM to below 30 µM), high (30 µM or more)

> print(dat)
                                   compound  discrete.label
1  Nc1sc(-c2ccc(Br)cc2)c(-c2ccc(Cl)cc2)c1C(=O)NCc1ccccc1            high
2  O=C1CC(c2cccs2)c2c(sc(-c3ccc(Cl)cc3)c2-c2ccc(Cl)cc2)N1 (centres undefined)            high
3  Nc1sc(-c2ccccc2)c(-c2ccc(Cl)cc2)c1C(=O)NC1CC1             low
4  Nc1sc(-c2ccc(Br)cc2)c(-c2ccc(Cl)cc2)c1C(=O)NC1CC1            high
5  O=C1CC(c2ccco2)c2c(sc(-c3ccc(Cl)cc3)c2-c2ccc(Cl)cc2)N1 (centres undefined)            high

Data request: Field: class (IC50) — entry: `Clc1ccc(-c2sc3ncnc(NC4CC4)c3c2-c2ccc(Cl)cc2)cc1`
Data returned: high

Data request: Further, for `Nc1[nH]c(-c2ccc(Cl)cc2)c(-c2ccc(Cl)cc2)c1C(=O)NC1CC1` ?
Data returned: low

Data request: Further, for `Clc1ccc(-c2sc3ncnc(N4CCCCC4)c3c2-c2ccc(Cl)cc2)cc1` ?
Data returned: high

Data request: Further, for `Nc1sc(-c2ccc([N+](=O)[O-])cc2)c(-c2ccc(Cl)cc2)c1C(=O)NC1CCCCC1` ?
Data returned: middle

Data request: Further, for `Nc1sc(-c2ccc([N+](=O)[O-])cc2)c(-c2ccc(Cl)cc2)c1C(=O)N1CCOCC1` ?
Data returned: high

Data request: Further, for `Nc1sc(-c2ccc([N+](=O)[O-])cc2)c(-c2ccc(Cl)cc2)c1C(=O)N1CCCC1` ?
Data returned: high

Data request: Further, for `Nc1sc(-c2ccc(F)cc2)c(-c2ccc(Cl)cc2)c1C(=O)NCc1ccccc1` ?
Data returned: middle

Data request: Further, for `Nc1sc(-c2ccc(Cl)cc2)c(-c2ccc(Cl)cc2)c1C(=S)NC1CCCCC1` ?
Data returned: middle

Data request: Further, for `Nc1sc(-c2ccc(F)cc2)c(-c2ccc(Cl)cc2)c1C(=O)N1CCOCC1` ?
Data returned: middle

Data request: Further, for `CCOC(=O)c1c(N)[nH]c(-c2ccc(Cl)cc2)c1-c1ccc(Cl)cc1` ?
Data returned: low

Data request: Further, for `Nc1sc(-c2ccc(Br)cc2)c(-c2ccc(Cl)cc2)c1C(=O)N1CCCC1` ?
Data returned: high

Data request: Further, for O=C1CC(c2ccccc2)c2c(sc(-c3ccc(Cl)cc3)c2-c2ccc(Cl)cc2)N1 (centres undefined) ?
Data returned: high
